# System: HCT116 cells
# method notes: Inhibition of proliferation of the human colon tumor line HCT116 ([14C]-thymidine incorporation)
# Format: cell-based
# study conditions: Homo sapiens, HCT-116, 48 h, 48 hours at 37° C., read-out: Inhibition of HCT116 proliferation IC 50 (μm)
pIC50: −log10 of the molar value. Structures can show the parent of a compound that is named as a salt.

| compound | target system | pIC50 |
| --- | --- | --- |
| COc1ccccc1N1CCN(C(=O)c2cc(C)nn2-c2ccc(F)cc2)CC1 | HCT116 cells | 6.74 |
| Cc1cc(C(=O)N2CCN(c3cccc(Cl)c3)CC2)n(-c2ccccc2F)n1 | HCT116 cells | 5.84 |
| COc1cccc(-n2nc(C)cc2C(=O)N2CCN(c3cccc(C)c3C)CC2)c1 | HCT116 cells | 6.49 |
| COc1cc(OC)cc(N2CCN(C(=O)c3cc(C(F)(F)F)nn3-c3ccccc3)CC2)c1 | HCT116 cells | 7.55 |
| Cc1cc(C(=O)N2CCN(c3cccc(C(=O)NCCO)c3)CC2)n(-c2ccccc2)n1 | HCT116 cells | 6.93 |
| Cc1cc(C(=O)N2CCN(c3cccc(-c4ccccc4)c3)CC2)n(-c2ccccc2)n1 | HCT116 cells | 6.51 |
| COc1cccc(N2CCN(C(=O)c3cc(C)nn3-c3cccc(Cl)c3)CC2)c1 | HCT116 cells | 7.40 |
| COc1cccc(N2CCN(C(=O)c3cc(C)nn3-c3ccccc3F)CC2)c1 | HCT116 cells | 8.40 |
| COc1cccc(N2CCN(C(=O)c3cc(C)nn3-c3ccccc3)CC2)c1 | HCT116 cells | 7.60 |
| COc1ccccc1N1CCN(C(=O)c2cc(C)nn2-c2cccc(C)c2)CC1 | HCT116 cells | 7.14 |
| Cc1cc(C(=O)N2CCN(c3cccnc3)CC2)n(-c2ccccc2)n1 | HCT116 cells | 7.65 |
| Cc1cc(C(=O)N2CCN(c3cccc(C(F)(F)F)c3)CC2)n(-c2ccccc2)n1 | HCT116 cells | 6.08 |
| CCc1ccccc1N1CCN(C(=O)c2cc(C)nn2-c2ccccc2F)CC1 | HCT116 cells | 6.96 |
| COc1ccc(Cl)cc1N1CCN(C(=O)c2cc(C)nn2-c2ccc(F)cc2)CC1 | HCT116 cells | 8.07 |
| COc1cc(OC)cc(N2CCN(C(=O)c3ccnn3-c3ccccc3)CC2)c1 | HCT116 cells | 9.00 |
| CCOC(=O)c1cccc(N2CCN(C(=O)c3cc(C)nn3-c3ccccc3)CC2)c1 | HCT116 cells | 7.22 |
| Cc1cc(C(=O)N2CCN(c3cccc(Cl)c3)CC2)n(-c2cnccn2)n1 | HCT116 cells | 6.03 |
| Cc1cc(C(=O)N2CCN(c3cccc(C(C)O)c3)CC2)n(-c2ccccc2)n1 (centres unmarked) [Example E39, hydrochloride] | HCT116 cells | 7.14 |
| CSc1ccccc1N1CCN(C(=O)c2cc(C)nn2-c2cccc(C)c2)CC1 | HCT116 cells | 7.43 |
| Cc1cc(C(=O)N2CCN(c3cnccn3)CC2)n(-c2ccccc2)n1 | HCT116 cells | 7.40 |
| Cc1cccc(N2CCN(C(=O)c3cc(C)nn3-c3ccccc3)CC2)c1 | HCT116 cells | 7.44 |
| Cc1cc(C(=S)N2CCN(c3cccc(Cl)c3)CC2)n(-c2ccccc2)n1 | HCT116 cells | 7.96 |
| Cc1cc(C(=O)N2CCN(c3cccc(NCc4ccccc4)c3)CC2)n(-c2ccccc2)n1 [Example E32, hydrochloride] | HCT116 cells | 6.29 |
| O=C(c1cc(-c2ccsc2)nn1-c1ccccc1)N1CCN(c2cccc(Cl)c2)CC1 | HCT116 cells | 6.47 |
| O=C(c1cc(OCc2ccccc2)nn1-c1ccccn1)N1CCN(c2cccc(Cl)c2)CC1 | HCT116 cells | 5.22 |
| COc1cccc(-n2nc(C)cc2C(=O)N2CCN(c3ccc(Cl)c(Cl)c3)CC2)c1 | HCT116 cells | 6.53 |
| Cc1cccc(-n2nc(C)cc2C(=O)N2CCN(c3ccccc3C(F)(F)F)CC2)c1 | HCT116 cells | 5.87 |
| COc1ccccc1N1CCN(C(=O)c2cc(C)nn2-c2ccccc2)CC1 | HCT116 cells | 7.40 |
| Cc1cc(C(=O)N2CCN(c3cccc(C(N)=O)c3)CC2)n(-c2ccccc2)n1 | HCT116 cells | 8.00 |
| Cc1cccc(-n2nc(C)cc2C(=O)N2CCN(c3ccc(C)c(C)c3)CC2)c1 | HCT116 cells | 6.14 |
| Cc1cc(C)cc(N2CCN(C(=O)c3cc(C)nn3-c3ccccc3)CC2)c1 | HCT116 cells | 8.66 |
| Cc1cc(C(=O)N2CC=C(c3ccccc3)CC2)n(-c2ccccc2)n1 | HCT116 cells | 7.23 |
| COc1ccc(Cl)cc1N1CCN(C(=O)c2cc(C)nn2-c2cccc(F)c2)CC1 | HCT116 cells | 7.34 |
| Cc1cc(C(=O)N2CCN(c3ccccc3C)CC2)n(-c2cccc(Cl)c2)n1 | HCT116 cells | 6.90 |
| COc1cc(OC)cc(N2CCN(C(=O)c3cc(C(F)(F)F)nn3-c3cccc(C#N)c3)CC2)c1 | HCT116 cells | 6.84 |

Reference source: patent US20050130989A1
